biological target: Trypsin; assay: Inhibitory constant, chromogenic substrate assay
pKi: −log10 of the molar value.
reportedMetric: pKi

Challenge: What reported pKi corresponds to COc1cc(-c2cc(=O)c3c(O)c(OC)c(OC)cc3o2)ccc1O [CSL, 4,5-dihydroxy-3,6,7-trimethoxyflavone] on Trypsin?
Response given: < 3.52
